FYI, the data here is from ChEMBL document CHEMBL4007422.

# measured_target: Cytochrome P450 2E1 (Homo sapiens)
# Sequence (P05181 whole entry): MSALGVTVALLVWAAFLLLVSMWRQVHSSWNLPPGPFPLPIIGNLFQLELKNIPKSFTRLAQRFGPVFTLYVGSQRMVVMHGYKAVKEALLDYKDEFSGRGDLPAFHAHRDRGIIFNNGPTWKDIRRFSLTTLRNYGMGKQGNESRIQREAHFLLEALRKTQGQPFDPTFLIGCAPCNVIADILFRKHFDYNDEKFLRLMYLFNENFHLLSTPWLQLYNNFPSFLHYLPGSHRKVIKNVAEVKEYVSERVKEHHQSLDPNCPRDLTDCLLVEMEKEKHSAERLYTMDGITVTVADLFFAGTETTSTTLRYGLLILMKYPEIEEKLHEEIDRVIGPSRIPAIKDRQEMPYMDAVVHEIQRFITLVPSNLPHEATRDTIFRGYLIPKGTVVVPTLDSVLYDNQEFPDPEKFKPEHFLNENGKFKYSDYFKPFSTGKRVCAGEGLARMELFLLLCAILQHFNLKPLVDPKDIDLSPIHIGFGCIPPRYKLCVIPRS
pIC50: −log10 of the molar value.
value_kind: pIC50

For the molecule COc1ccc2c(c1)c(CN1CCN(C)CC1)cn2S(=O)(=O)c1ccccc1Br.CS(=O)(=O)O.O , the measured pIC50 on Cytochrome P450 2E1 (Homo sapiens) was < 5.00

* * *

# procedure_details: AUC (0 to t) in Beagle dog at 10 mg/kg, po
# Assay type: ADME, organism-based, Canis lupus familiaris
# cond: in vivo
value_kind: AUC(0-t) (ng·h/mL)
Just the number please, in ng·h/mL, no unit attached.

For COc1ccc2c(c1)c(CN1CCN(C)CC1)cn2S(=O)(=O)c1ccccc1Br.CS(=O)(=O)O.O the compound record lists AUC(0-t) as 1360

* * *

# procedure_details: Ratio of drug uptake in Wistar rat brain to plasma at 10 mg/kg, po by LC-MS/MS analysis
# Type: ADME, organism-based
# cond: read-out: BPR
value_kind: Kp
Reply with just the number.

Check out these entries, answers already filled in.
CC(C)c1ccc(S(=O)(=O)n2cc(CN3CCN(C)CC3)c3cc(F)ccc32)cc1.Cl.Cl = 0.95
CN1CCN(Cc2cn(S(=O)(=O)c3ccccc3)c3ccccc23)CC1.Cl.Cl = 0.82

// below: Kp requested for another compound
For COc1ccc2c(c1)c(CN1CCN(C)CC1)cn2S(=O)(=O)c1ccccc1Br.CS(=O)(=O)O.O the compound record lists Kp as 1.48

* * *

# measured_target: UniProtKB P50406
# Sequence (P50406 whole entry): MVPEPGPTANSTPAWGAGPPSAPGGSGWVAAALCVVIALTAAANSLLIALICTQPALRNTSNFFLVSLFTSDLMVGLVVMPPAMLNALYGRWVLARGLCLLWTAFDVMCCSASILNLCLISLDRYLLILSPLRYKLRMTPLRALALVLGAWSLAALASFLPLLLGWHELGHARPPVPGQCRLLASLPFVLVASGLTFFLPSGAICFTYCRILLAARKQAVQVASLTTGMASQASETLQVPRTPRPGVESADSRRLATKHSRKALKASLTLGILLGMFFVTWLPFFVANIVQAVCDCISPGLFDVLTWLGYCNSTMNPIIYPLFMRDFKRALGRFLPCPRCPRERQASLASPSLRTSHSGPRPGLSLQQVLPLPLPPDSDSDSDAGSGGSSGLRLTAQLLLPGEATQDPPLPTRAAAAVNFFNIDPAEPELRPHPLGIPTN
# procedure_details: Displacement of [3H]-LSD from recombinant human 5-HT6 receptor expressed in HEK293 cells after 60 mins
In this section, each of the compounds is paired with its reported pKi.
# pKi: negative log10 of molar concentration; output just the value

O=C(c1ccccc1)N1CCN(Cc2cn(S(=O)(=O)c3ccccc3Br)c3ccccc23)CC1 = 6.44
COc1cccc2c1c(CN1CCN(C)CC1)cn2S(=O)(=O)c1ccccc1Br = 7.84

For CN1CCN(Cc2cn(S(=O)(=O)c3ccccc3Br)c3ccc([N+](=O)[O-])cc23)CC1 the compound record lists pKi as 6.70
